System: IFNγ-induced Nitric Oxide production
Test details: Nitric oxide production assay in RAW 264.7 mouse macrophages
Type: cell-based
Stated conditions: RAW264.7, suppression of IFNγ-induced NO production normalized to cell viability (WST-1), RAW 264.7, 24 hours IFNγ
Description: A. Nitric Oxide Production Assay and Cell Viability RAW 264.7 mouse macrophages were plated in 96-well plates at a density of 30,000 cells per well in triplicate in RPMI 1640+0.5% FBS and incubated at 37° C. with 5% CO2 in a humidified atmosphere. […] Nitric oxide concentration in media was determined using the Griess reagent system (Promega). Cell viability was determined using WST-1 reagent (Roche). […]
pIC50: −log10 of the molar value.
Readout: pIC50

INSERT INTO assay_data (compound, measured) VALUES
  ('COC(=O)[C@]12CCC(C)(C)C[C@H]1[C@H]1C(=O)C=C3[C@@]4(C)C=C(C#N)C(=O)[C@@](C)(CO)[C@@H]4CC[C@@]3(C)[C@]1(C)CC2 [Comparison Compound #300, reference compound]', 8.13),
  ('COC(=O)[C@]12CCC(C)(C)C[C@H]1[C@H]1C(=O)C=C3[C@@]4(C)C=C(C#N)C(=O)[C@](C)(CO)[C@@H]4CC[C@@]3(C)[C@]1(C)CC2 [Comparison Compound #301, reference compound]', 8.74),
  ('COC(=O)[C@]12CCC(C)(C)C[C@H]1[C@H]1C(=O)C=C3[C@@]4(C)C=C(C#N)C(=O)[C@@](C)(COC(=O)c5ccccc5)[C@@H]4CC[C@@]3(C)[C@]1(C)CC2', 6.72),
  ('C[C@H](O)[C@]1(C)C(=O)C(C#N)=C[C@]2(C)C3=CC(=O)[C@]45OC(=O)[C@@]6(CCC(C)(C)C[C@H]64)CC[C@@]5(C)[C@]3(C)CC[C@@H]12', 8.92),
  ('COC(=O)N[C@]12CCC(C)(C)C[C@H]1[C@H]1C(=O)C=C3[C@@]4(C)C=C(C#N)C(=O)[C@@](C)(CO)[C@@H]4CC[C@@]3(C)[C@]1(C)CC2', 7.61);

###

Measured pIC50 accompanies every entry in the list below.
Test system: hIL17
Test details: IL-17 release from differentiated primary human T-cells (IL-17A HTRF assay)
Type: cell-based
Stated conditions: inhibition of IL-17A levels; primary human CD4+ T cells differentiated into Th17 cells, 46-hour incubation
pIC50: −log10 of the molar value.
Readout: pIC50

INSERT INTO results (compound, readout, measured) VALUES
  ('COC(=O)[C@]12CCC(C)(C)C[C@H]1[C@H]1C(=O)C=C3[C@@]4(C)C=C(C#N)C(=O)[C@@H](C)[C@@H]4CC[C@@]3(C)[C@]1(C)CC2 [Comparison Compound #1, reference compound]', 'pIC50', 7.60),
  ('CC1(C)CC[C@@]23CC[C@@]4(C)[C@]5(C)CC[C@@H]6[C@](C)(C=C(C#N)C(=O)[C@@]6(C)CO)C5=CC(=O)[C@]4(OC2=O)[C@@H]3C1', 'pIC50', 7.70),
  ('Cc1noc([C@]23CCC(C)(C)C[C@H]2[C@H]2C(=O)C=C4[C@@]5(C)C=C(C#N)C(=O)[C@@](C)(O)[C@@H]5CC[C@@]4(C)[C@]2(C)CC3)n1', 'pIC50', 7.77),
  ('CC1(C)CC[C@]2(C(=O)NCC(F)(F)F)CC[C@]3(C)[C@H](C(=O)C=C4[C@@]5(C)C=C(C#N)C(=O)[C@@](C)(CO)[C@@H]5CC[C@]43C)[C@@H]2C1', 'pIC50', 7.30),
  ('COC(=O)[C@]12CCC(C)(C)C[C@H]1[C@H]1C(=O)C=C3[C@@]4(C)C=C(C#N)C(=O)[C@](C)(CO)[C@@H]4CC[C@@]3(C)[C@]1(C)CC2 [Comparison Compound #301, reference compound]', 'pIC50', 7.77),
  ('COCOC[C@@]1(C)C(=O)C(C#N)=C[C@]2(C)C3=CC(=O)[C@@H]4[C@@H]5CC(C)(C)CC[C@]5(C(=O)OC)CC[C@@]4(C)[C@]3(C)CC[C@@H]12 [Comparison Compound #302, reference compound]', 'pIC50', 7.62),
  ('COC(=O)[C@]12CCC(C)(C)C[C@H]1[C@H]1C(=O)C=C3[C@@]4(C)C=C(C#N)C(=O)C[C@@H]4CC[C@@]3(C)[C@]1(C)CC2', 'pIC50', 7.40),
  ('COC(=O)[C@]12CCC(C)(C)C[C@H]1[C@H]1C(=O)C=C3[C@@]4(C)C=C(C#N)C(=O)[C@@](C)(c5nnc(C)o5)[C@@H]4CC[C@@]3(C)[C@]1(C)CC2', 'pIC50', 7.04),
  ('COC(=O)[C@]12CCC(C)(C)C[C@H]1[C@H]1C(=O)C=C3[C@@]4(C)C=C(C#N)C(=O)[C@](C)(C(=O)OC)[C@@H]4CC[C@@]3(C)[C@]1(C)CC2', 'pIC50', 7.74);
